Value source: ChEMBL document CHEMBL1961873

- System Tested: Tyrosine-protein kinase ZAP-70 (Homo sapiens) (UniProt P43403);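 further: values are mean percent inhibition of ZAP-70 kinase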
- Sequence (P43403 whole entry): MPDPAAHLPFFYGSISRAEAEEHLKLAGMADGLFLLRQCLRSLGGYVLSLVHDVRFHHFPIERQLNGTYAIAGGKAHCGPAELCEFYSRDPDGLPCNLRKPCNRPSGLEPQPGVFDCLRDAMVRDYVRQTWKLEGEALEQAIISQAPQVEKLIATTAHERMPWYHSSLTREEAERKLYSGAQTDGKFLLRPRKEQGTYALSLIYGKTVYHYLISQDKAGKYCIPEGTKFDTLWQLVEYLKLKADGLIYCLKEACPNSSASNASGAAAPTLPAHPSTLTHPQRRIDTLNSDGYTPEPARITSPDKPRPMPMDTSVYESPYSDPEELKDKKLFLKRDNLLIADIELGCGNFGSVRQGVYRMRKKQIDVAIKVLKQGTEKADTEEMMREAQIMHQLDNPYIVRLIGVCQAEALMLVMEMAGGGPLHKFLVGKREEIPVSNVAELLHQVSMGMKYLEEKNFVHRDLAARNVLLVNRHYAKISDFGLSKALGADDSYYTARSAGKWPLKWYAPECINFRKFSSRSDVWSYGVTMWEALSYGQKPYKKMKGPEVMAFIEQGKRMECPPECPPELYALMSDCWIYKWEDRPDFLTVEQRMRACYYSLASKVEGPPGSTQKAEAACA
- Measurement Context: at 0.1 µM
Here the recorded inhibition is given for each entry.
Measured Quantity: inhibition

>>> data_value("NCc1ccc(-c2nc(-c3ccc(Cl)c(O)c3)c(-c3ccncc3)[nH]2)cc1")
"0.84%"
>>> data_value("[O-][S+]1CCN(Cc2ccc(-c3ccc4ncnc(Nc5ccc(OCc6ccccc6)c(F)c5)c4c3)o2)CC1")
"2.48%"
>>> data_value("O=C1NC(=O)C(c2cccc(Cl)c2)=C1Nc1ccc(O)c(Cl)c1")
"1.5%"

* * *

- Tested on: Epidermal growth factor receptor (Homo sapiens), P00533 [L858R,T790M]
- Sequence (P00533 whole entry T790M/L858R, looked up): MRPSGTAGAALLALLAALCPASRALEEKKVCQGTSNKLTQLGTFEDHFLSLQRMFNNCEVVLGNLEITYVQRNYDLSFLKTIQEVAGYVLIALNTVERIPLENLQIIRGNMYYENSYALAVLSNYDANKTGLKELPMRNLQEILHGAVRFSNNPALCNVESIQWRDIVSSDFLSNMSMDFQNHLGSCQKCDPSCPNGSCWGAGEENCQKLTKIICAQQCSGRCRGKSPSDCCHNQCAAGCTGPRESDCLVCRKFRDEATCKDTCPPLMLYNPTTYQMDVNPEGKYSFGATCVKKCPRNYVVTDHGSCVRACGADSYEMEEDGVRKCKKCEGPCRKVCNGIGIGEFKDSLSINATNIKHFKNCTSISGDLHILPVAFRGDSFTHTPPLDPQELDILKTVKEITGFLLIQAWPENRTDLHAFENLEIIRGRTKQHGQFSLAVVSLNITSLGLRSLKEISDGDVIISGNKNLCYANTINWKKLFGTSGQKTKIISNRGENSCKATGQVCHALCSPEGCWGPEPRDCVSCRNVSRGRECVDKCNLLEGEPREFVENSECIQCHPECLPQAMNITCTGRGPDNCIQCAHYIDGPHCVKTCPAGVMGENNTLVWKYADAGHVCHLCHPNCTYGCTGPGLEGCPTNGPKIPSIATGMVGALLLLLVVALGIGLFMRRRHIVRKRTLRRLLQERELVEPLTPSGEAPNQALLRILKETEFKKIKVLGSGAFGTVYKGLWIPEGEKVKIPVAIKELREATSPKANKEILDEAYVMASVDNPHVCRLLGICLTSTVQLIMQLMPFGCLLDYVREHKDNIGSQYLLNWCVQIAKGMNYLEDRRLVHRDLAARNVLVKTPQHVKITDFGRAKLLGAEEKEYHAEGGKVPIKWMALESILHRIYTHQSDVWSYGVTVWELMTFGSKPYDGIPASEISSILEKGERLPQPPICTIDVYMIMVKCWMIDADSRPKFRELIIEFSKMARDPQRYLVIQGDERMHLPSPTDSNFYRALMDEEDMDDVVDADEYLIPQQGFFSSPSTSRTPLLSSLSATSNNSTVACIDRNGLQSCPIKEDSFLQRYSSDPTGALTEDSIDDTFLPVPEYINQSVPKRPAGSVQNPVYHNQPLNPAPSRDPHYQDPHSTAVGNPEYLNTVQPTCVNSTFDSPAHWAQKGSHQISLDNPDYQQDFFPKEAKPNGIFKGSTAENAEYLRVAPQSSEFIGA
- Measurement Context: at 0.1 µM
Measured Quantity: inhibition (%)

>>> data_value("c1cnn2ncc(-c3ccnc(Nc4ccc5c(c4)OCCO5)n3)c2c1")
2.19
>>> data_value("CCc1cccc(NC(=O)Nc2ccc(Oc3ccc4nc(NC(=O)OC)[nH]c4c3)cc2)c1")
3.59
>>> data_value("COC(=O)Nc1nc2cc(Oc3ccc(NC(=O)Nc4cccc(C(=O)O)c4)cc3)ccc2[nH]1")
-0.04
>>> data_value("CCn1c(-c2nonc2N)nc2cncc(C(=O)N3CC[C@H](N)C3)c21")
1.56
>>> data_value("CCN1CCC(CC(=O)Nc2n[nH]c3nc(-c4cccs4)c(Br)cc23)CC1")
0.09
>>> data_value("CC(=O)Nc1cccc(C#Cc2cncnc2Nc2ccc(OCc3cccc(F)c3)c(Cl)c2)n1")
-2.43
>>> data_value("Cc1nn(C)c2cc(N(C)c3ccnc(Nc4cccc(S(N)(=O)=O)c4)n3)ccc12")
1.34
>>> data_value("COc1ccc(-c2nn3ncccc3c2-c2ccnc(Nc3ccc(Cl)c(C(F)(F)F)c3)n2)cc1")
0.9
>>> data_value("CN1CCC(C(=O)Nc2n[nH]c3nnc(-c4ccccc4)cc23)CC1")
-2.57
>>> data_value("COc1cc2ncn(-c3cc(OCc4ccccc4C(F)(F)F)c(C(N)=O)s3)c2cc1OC")
3.32
>>> data_value("CCn1c(-c2nonc2N)nc2ccncc21")
-1.07
>>> data_value("[O-][S+]1CCN(Cc2ccc(-c3ccc4ncnc(Nc5ccc(OCc6ccccc6)c(F)c5)c4c3)o2)CC1")
3.03
>>> data_value("CS(=O)(=O)CCN(CC#N)Cc1ccc(-c2ccc3ncnc(Nc4ccc(OCc5cccc(F)c5)c(Cl)c4)c3c2)o1")
-1.28
>>> data_value("NC(=O)c1ccc(-c2nc(-c3ccccn3)c(-c3ccc4c(c3)OCO4)[nH]2)cc1")
3.52
>>> data_value("CCn1c(-c2nonc2N)nc2c(N3CCCC3)nccc21")
0.11
>>> data_value("Cc1ccc(C(=O)NC2CCCCC2)cc1-c1ccc(C(=O)NCC2CC2)cc1")
-0.59
>>> data_value("CCn1c(-c2nonc2N)nc2c(C#CC(C)(C)O)nc(OC[C@@H](N)c3ccccc3)cc21")
-0.23
>>> data_value("COc1cc2ncn(-c3cc(O[C@H](C)c4ccccc4Cl)c(C(N)=O)s3)c2cc1OC")
3.14
>>> data_value("O=C1NC(=O)C(N2CCc3ccccc32)=C1c1ccc(Cl)cc1")
1.35
>>> data_value("NC(=O)c1cccc(Nc2nccc(Nc3cccc4[nH]ncc34)n2)c1")
-5.66
